The origin of these recorded values is the supplement of paper PMC10567573.

B1: CDKN1A (parent)
chain: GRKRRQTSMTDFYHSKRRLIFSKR

# Variants of: B1
# TEST_METHOD_NOTES: protein stability index of a GFP-peptide fusion (GPS, HEK-293T) (PSI 1-6); higher = more stable;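 further: lentivirally expressed fusions sorted by FACS into six bins by GFP to DsRed ratio, PSI derived from sequencing read proportions per bin multiplied by bin number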
# STATED_CONDITIONS: c terminus: a fixed tail appended
Recorded protein stability index by entry

| SEQUENCE_VARIANT | protein stability index |
| --- | --- |
| F21C | 3.58 |
| R2L | 2.6 |
| D11Y | 2.07 |
| R5H | 3.17 |
| F21H | 3 |
| K16F | 2.28 |
| F21E | 2.62 |
| L19W | 3.25 |
| F12Q | 2.46 |
| L19Q | 3.85 |
| M9K | 2.62 |
| R4P | 3.12 |
| R17H | 2.64 |
| F21I | 3.27 |
| F21S | 3.66 |
| R2D | 2.78 |
| R18V | 2.93 |
| K16C | 3.39 |
| R2F | 3.25 |
| M9G | 3.98 |
| R17E | 3.75 |
| Q6I | 2.79 |
